tested on: SK-MEL-2 melanoma; test: NCI tumour cell line growth inhibition, 48 h
quantityKind: TGI (µM)
// return numeric value only (unit: µM, not printed)

Req: Using the record for O=C1C=CC(=O)c2c(O)c(N3CCC[C@H]3CO)c(Cl)c(O)c21 , state its measured TGI.
Resp: 5.53

Req: Using the record for CCCCSc1nsc(N(C(=O)c2ccccc2)C(=O)c2ccccc2)n1 , state its measured TGI.
Resp: 71.1

Req: Using the record for COC(=O)C1CCc2sc3ncnc(Nc4cn[nH]c4C(=O)Nc4ccc(CN5CCN(C)CC5)cc4)c3c21 (configuration not stated) , state its measured TGI.
Resp: 3.48

Req: Using the record for Cc1cc2c(cc1C)N(C(=O)CCl)CCN2C(=O)CCl , state its measured TGI.
Resp: 4.22

Req: Using the record for COc1ccc2c(c1)/C(=C\c1c(Cl)[nH]c3ccc(OC)cc13)C(=O)N2 , state its measured TGI.
Resp: 62.8

Req: Using the record for COc1ccc(Cn2cc3c(c2)-c2oncc2CC3)cc1 , state its measured TGI.
Resp: 22.3

Req: Using the record for COc1ccc(-c2ccc(-c3ccc(C(=N)N)cn3)o2)cc1 , state its measured TGI.
Resp: 15.9

Req: Using the record for CC1=C(C(=O)Nc2cccc(Cl)c2)C(c2ccccc2F)C(C(=O)Nc2cccc(Cl)c2)=C(C)N1 , state its measured TGI.
Resp: 27.1

Req: Using the record for COc1ccc(/C=C\c2cc(OC)c(O[Si](C)(C)C(C)(C)C)c(OC)c2)cc1 , state its measured TGI.
Resp: 65.2

====

Answer each item with its documented TGI.
test system: NCI-H23 lung; experiment: NCI tumour cell line growth inhibition, 48 h

Req: Please report the measured TGI for CCCOc1ccc2nc(NC(=O)OC)[nH]c2c1 tested on NCI-H23 lung.
Resp: > 100 µM

Req: Please report the measured TGI for CCOc1cc(/C=N\Nc2nnc(C)n2N)c(C)cc1N(CCCl)CCCl tested on NCI-H23 lung.
Resp: 9.49 µM

Req: Please report the measured TGI for COc1ccc(C2C3=C(COC3=O)Oc3cc4c(cc32)OCO4)c(OC)c1 (stereo not given) tested on NCI-H23 lung.
Resp: > 100 µM

Req: Please report the measured TGI for COc1cc(C(=O)Nc2cc3c(cc2Oc2cc(C)cc(C)c2)C(=O)N(C)[C@@H](CC(=O)N(C)O)C(=O)N3)c(Br)c(OC)c1OC tested on NCI-H23 lung.
Resp: 0.00543 µM

Req: Please report the measured TGI for O=C1C=CC(=O)N1n1c(-c2ccccc2)n[nH]c1=O tested on NCI-H23 lung.
Resp: > 100 µM

Req: Please report the measured TGI for COc1cccc2c1C(=O)c1c(O)c3c(c(O)c1C2=O)C[C@H](O)C[C@@H]3OC1CC(N)C(O)C(C)O1 (stereo not given in full) tested on NCI-H23 lung.
Resp: 3.18 µM

Req: Please report the measured TGI for C[C@]12CCC(=O)[C@@H](CCC3=CC(=O)C=CC3=O)[C@@H]1CCC2=O tested on NCI-H23 lung.
Resp: 38.2 µM

Req: Please report the measured TGI for COC(=O)[C@]12CCC(C)[C@H](C)[C@H]1C1=CCC3[C@@]4(C)CC[C@H](OC(C)=O)C(C)(C)C4CC[C@@]3(C)C1(C)C(O)C2 (stereo not given in full) tested on NCI-H23 lung.
Resp: > 100 µM

Req: Please report the measured TGI for CN1C(=O)N(C)C(O)C(Cl)(Br)C1=O (stereo not given) tested on NCI-H23 lung.
Resp: > 100 µM

Req: Please report the measured TGI for CCOP(=O)(OCC)OC(C#N)c1ccc(-c2ccccc2)cc1 (stereo not given) tested on NCI-H23 lung.
Resp: > 100 µM

Req: Please report the measured TGI for CS(=O)(=O)CSCSSCS(C)(=O)=O tested on NCI-H23 lung.
Resp: > 95.9 µM

Req: Please report the measured TGI for CCOc1cccc(/C=N/NC(=O)C(=O)Nc2cccc(C(F)(F)F)c2)c1O tested on NCI-H23 lung.
Resp: > 100 µM

Req: Please report the measured TGI for Cc1ccccc1C1=C(C(=O)Nc2ccc(Cl)c(Cl)c2)NC(=S)NC1N (stereo not given) tested on NCI-H23 lung.
Resp: > 100 µM

Req: Please report the measured TGI for O=P(O)(O)c1ccccc1Oc1ccccc1 tested on NCI-H23 lung.
Resp: > 100 µM

Req: Please report the measured TGI for c1cncc(CC2(c3cc4ccccc4[nH]3)OCCO2)c1 tested on NCI-H23 lung.
Resp: > 100 µM

Req: Please report the measured TGI for CC[PH+](CC)CC.O=COC1OC([S-])C(OC=O)C(OC=O)C1OC=O.[Au+] (stereo not given) tested on NCI-H23 lung.
Resp: 3.22 µM

Req: Please report the measured TGI for COC(=O)C(CC(=O)Nc1ccc(C)cc1)C(=O)C(=O)Nc1ccccc1C(C)C (stereo not given) tested on NCI-H23 lung.
Resp: > 100 µM

Req: Please report the measured TGI for COC(=O)Cc1ccc2c(cnn2-c2ccccc2)c1OC tested on NCI-H23 lung.
Resp: > 10 µM

Req: Please report the measured TGI for CC(=O)OCC(OC(C)=O)C(OC(C)=O)C(OC(C)=O)C(=O)CNn1c(-c2ccccc2Cl)nc2ccccc2c1=O (stereo not given) tested on NCI-H23 lung.
Resp: > 100 µM

Req: Please report the measured TGI for O=C1NC(=S)S/C1=C(/C=C(\CC(=O)c1ccccc1)c1ccc(Cl)cc1)c1ccccc1 tested on NCI-H23 lung.
Resp: 48.8 µM

Req: Please report the measured TGI for Cc1cc(C)c(C(=O)c2no[n+]([O-])c2C(=O)c2c(C)cc(C)c(Br)c2C)c(C)c1Br tested on NCI-H23 lung.
Resp: 24.3 µM

Req: Please report the measured TGI for C/C(=N\N(c1ccccc1)c1ccccc1)c1c(O)cc(C)oc1=O tested on NCI-H23 lung.
Resp: > 100 µM

Req: Please report the measured TGI for Cc1cc(Cl)ccc1Nc1nc(C(F)(F)F)ccc1C(=O)N/N=C/c1ccc([N+](=O)[O-])cc1 tested on NCI-H23 lung.
Resp: > 22 µM

Req: Please report the measured TGI for O=c1nc2c(c(-c3ccc(Br)cc3)[nH]1)COC/C2=C\c1ccc(Br)cc1 tested on NCI-H23 lung.
Resp: > 50 µM

Req: Please report the measured TGI for COc1ccc2cc(-c3c(-c4ccncc4)nc(-c4ccc(S(C)(=O)=O)cc4C)n3C)ccc2c1 tested on NCI-H23 lung.
Resp: > 25 µM

Req: Please report the measured TGI for COc1ccc(/C=c2\s/c(=C3/SC(=S)N(c4ccccc4)C3=O)n(-c3ccccc3)c2=O)cc1 tested on NCI-H23 lung.
Resp: > 100 µM

Req: Please report the measured TGI for CC1=C(C(=O)Nc2cccc(Cl)c2)C(c2ccccc2F)C(C(=O)Nc2cccc(Cl)c2)=C(C)N1 tested on NCI-H23 lung.
Resp: 26.5 µM

Req: Please report the measured TGI for CN(C)CCCNC(=O)c1ccc2c(c1)oc1cc3ccccc3c(=O)n12 tested on NCI-H23 lung.
Resp: > 50 µM

Req: Please report the measured TGI for COc1ccc(-c2oc3c(OC)c(OC)c(OC)c(OC)c3c(=O)c2OC)cc1OC tested on NCI-H23 lung.
Resp: > 100 µM

Req: Please report the measured TGI for Cc1cc(C)nc(NS(=O)(=O)c2ccc(Nc3c4ccccc4nc4c(C(=O)N5CCN(CCOS(C)(=O)=O)CC5)cccc34)cc2)n1 tested on NCI-H23 lung.
Resp: > 100 µM

Req: Please report the measured TGI for NCCCCNc1ccc2c(=O)[nH][nH]c(=O)c2c1 tested on NCI-H23 lung.
Resp: > 100 µM

Req: Please report the measured TGI for CC(C)c1cccc(C(C)C)c1NC(=O)/C(CC(=O)CC(c1ccccc1)c1c(O)c2ccccc2oc1=O)=N/O (stereo not given) tested on NCI-H23 lung.
Resp: > 100 µM

Req: Please report the measured TGI for O=C(OCCN=c1c2ccccc2ccc2ccccc12)c1ccccc1 tested on NCI-H23 lung.
Resp: > 100 µM

Req: Please report the measured TGI for O=[N+]([O-])c1cnn(C2=CNc3ccccc3N=C2)c1 tested on NCI-H23 lung.
Resp: > 100 µM

Req: Please report the measured TGI for COC(=O)C1=C(C(=O)OC)SC(=CC#CC=C2SC(C(=O)OC)=C(C(=O)OC)S2)S1 tested on NCI-H23 lung.
Resp: 17.8 µM

Req: Please report the measured TGI for Cc1[nH]nc(C(=O)n2nc(N)c3ccccc32)c1[N+](=O)[O-] tested on NCI-H23 lung.
Resp: > 100 µM

Req: Please report the measured TGI for O=C1NC2CCCCC2N=C1CC(=O)c1ccc(Br)cc1 (stereo not given) tested on NCI-H23 lung.
Resp: > 100 µM

Req: Please report the measured TGI for CCC1=NC(CO)[C@H](c2ccccc2)O1 (stereo not given in full) tested on NCI-H23 lung.
Resp: > 100 µM

Req: Please report the measured TGI for CC1C(=O)OCC2=CCN3CCC(OC(=O)C(C)C1(C)O)C23 (stereo not given) tested on NCI-H23 lung.
Resp: > 100 µM

Req: Please report the measured TGI for CCn1c(-c2nonc2N)nc2c(C#CC(C)(C)O)nc(OCCNC)cc21 tested on NCI-H23 lung.
Resp: > 25 µM
